These data points were gathered from ChEMBL document CHEMBL1136283.

ASSAY_COMMENT: Inhibitory activity against beta-glucosidase in almond at pH 6.8
Design: species or system Prunus dulcis
Reported Ki by item:
Give just the number in nM; leave the unit off.

C[C@@H]1CC(NCCc2ccccc2)[C@@H](O)[C@@H](O)[C@@H]1O (stereo in doubt; 9e (D)) :: 110

// below: Ki requested for another molecule
Entry C[C@@H]1CC(NCCc2ccccc2)[C@@H](O)[C@@H](O)[C@@H]1O (stereo in doubt) — recorded Ki = 57

###

MEASURED_ON: Beta-galactosidase (Bos taurus, UniProt Q58D55)
Sequence (Q58D55 whole entry): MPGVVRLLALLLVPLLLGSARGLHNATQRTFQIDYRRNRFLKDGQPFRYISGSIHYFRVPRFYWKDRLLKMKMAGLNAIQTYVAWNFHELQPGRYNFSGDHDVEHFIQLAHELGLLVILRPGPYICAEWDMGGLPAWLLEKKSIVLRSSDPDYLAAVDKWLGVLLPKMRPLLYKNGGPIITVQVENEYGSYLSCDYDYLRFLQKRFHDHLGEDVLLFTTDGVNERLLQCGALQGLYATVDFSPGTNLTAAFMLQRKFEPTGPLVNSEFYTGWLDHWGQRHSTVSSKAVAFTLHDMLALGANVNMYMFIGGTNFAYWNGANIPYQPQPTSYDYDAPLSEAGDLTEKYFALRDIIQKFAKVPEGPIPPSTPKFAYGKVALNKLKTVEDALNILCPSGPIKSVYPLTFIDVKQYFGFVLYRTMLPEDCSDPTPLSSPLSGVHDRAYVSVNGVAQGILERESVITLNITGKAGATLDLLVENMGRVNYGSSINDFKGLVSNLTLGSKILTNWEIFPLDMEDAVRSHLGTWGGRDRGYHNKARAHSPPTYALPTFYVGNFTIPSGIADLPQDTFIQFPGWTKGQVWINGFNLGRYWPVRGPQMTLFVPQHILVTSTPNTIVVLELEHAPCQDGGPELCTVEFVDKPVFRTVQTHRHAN
Reported IC50 by item:
Give just the number in nM; leave the unit off.

Before answering, review these 3 worked examples.
CCCCCCCCCCNC1CC(C)C(O)C(O)C1O (configuration not stated) :: 200
CCCCCCCCCCN[C@H]1CC(C)[C@@H](O)C(O)[C@@H]1O (some centres not stated) :: 1000
CC1CC(NCCCCc2ccccc2)C(O)C(O)C1O (configuration not stated) :: 900

// assay Beta-galactosidase (Bos taurus, UniProt Q58D55), entry CCCCCCCCN[C@H]1CC(C)[C@@H](O)C(O)[C@@H]1O (some centres not stated) , IC50 value = 3700

// assay Beta-galactosidase (Bos taurus, UniProt Q58D55), entry C[C@@H]1CC(NCCc2ccccc2)[C@@H](O)[C@@H](O)[C@@H]1O (stereo in doubt) , IC50 value = 5700

// assay Beta-galactosidase (Bos taurus, UniProt Q58D55), entry CCCCCCNC1CC(C)C(O)C(O)C1O (configuration not stated) , IC50 value = 3700

// assay Beta-galactosidase (Bos taurus, UniProt Q58D55), entry CCCCCCCCNC1CC(C)C(O)C(O)C1O (configuration not stated) , IC50 value = 700

###

ASSAY_COMMENT: Inhibitory activity against beta-glucosidase in almond
Set-up: species or system Prunus dulcis
PROPERTY_MEASURED: pKi
The value called pKi is obtained by taking minus log10 of the concentration in mol/L.

Entry C[C@@H]1CC(NCCc2ccccc2)[C@@H](O)[C@@H](O)[C@@H]1O (stereo in doubt) — recorded pKi = 7.24
